tested on: MS2 coat protein; assay: apparent KD of MS2 coat protein; designed switch direction (-1 OFF switch, 1 ON switch): -1; higher = weaker reporter binding; settings: input ligand: none
MEASURED ENDPOINT: apparent KD of MS2 coat protein (nM)
The reply should be a number in nM, with the unit left off.

Consider the following illustrative entries.
IN: Record request: apparent KD of MS2 coat protein value, item UAUUAGCAAGUGAGAUCCCACAUGAGGAUCACCCAUGUGCUCGUCUUAUAACGUACUGUGACGAAAGUCACGGUACG [Sensor-V1 #81] (Eterna round: R97, puzzle: Sensor, turn-off variant 1)
OUT: 47.2

IN: Also need GGUGAAGCAGGAUAUGUAUCGAUAUACAUGAGGAUCACCCAUGUCAUGUAGAAACCGCAUAUAGAAGGGCUUCACC [Exclusion 5 (FMN-MS2 slide v.6)] (Eterna round: R97, puzzle: Exclusion 5) , thanks.
OUT: 47.4

IN: Also need CUGCUCCGUGUAGGAUAUGCCCGCACCACCCGGGCAGAAGGACAUGAGGAUCACCCAUGUAUGUUAUUAUCACGUGUGGCGCGC [Design 39] (Eterna round: R96, puzzle: Exclusion NG 1) , thanks.
OUT: 16.4

***
IN: Record request: apparent KD of MS2 coat protein value, item AUGGGUCCUCACGGAGCUACAUGAGGAUCACCCAUGUGGAUUGAGGAUAUCGUAACCCGACGGGACGAGAAGGCAGUUUACUGU [Ex NG3 #98] (Eterna round: R96, puzzle: Exclusion NG 3)
OUT: 29.4

IN: Also need UUUCGGCAUGUAGGAUAUGGGUCCGAUUAGGAUUUAGAAGGACAUGAGGAUCACCCAUGUGCAUUUAAUUGGUCAUUACCGUUU [EXclNG1-LROPPY09] (Eterna round: R96, puzzle: Exclusion NG 1) , thanks.
OUT: 66

====

Listing of recorded apparent KD of MS2 coat protein by entry.
tested on: MS2 coat protein; test: apparent KD of MS2 coat protein; designed switch direction (-1 OFF switch, 1 ON switch): 1; higher = weaker reporter binding; conditions: input ligand: microRNA oligo, concentration not stated
The reply should be a number in µM, with the unit left off.

IN: Record request: apparent KD of MS2 coat protein value, item UCUUGGUUUUUGCUCGUUUUUUGUGUUGAACAUGAGGAUCACCCAUGUAUUGUACGGUCCAGUUUGAUAAUGGUCCG [JMF 34] (Eterna round: R96, puzzle: Sensor for hsa-mir-208a)
OUT: 0.0133

Consider the additional sequence presented here.
IN: Record request: apparent KD of MS2 coat protein value, item GGUGCAAUUAACGCCUACAUGAGGAUCACCCAUGUAUGUAGGCAGGAUAUCGUUUGCAAAGCAAACGAGAAGGGCUGUAGUACC [Mat - Same State NG 3 - JL Mod - D40] (Eterna round: R96, puzzle: Same State NG 3)
OUT: 0.109

====

test system: MS2 coat protein; test: apparent KD of MS2 coat protein; designed switch direction (-1 OFF switch, 1 ON switch): -1; higher = weaker reporter binding; conditions: input ligand: FMN 200 uM
Listing of recorded apparent KD of MS2 coat protein by entry.
The reply should be a number in nM, with the unit left off.

Consider the following illustrative entries.
IN: Record request: apparent KD of MS2 coat protein value, item CUAGUAUAUCAGGAUAUGAUAUUGUGUAGUAUAUCAGAAGGGAUGACAUGAGGAUCACCCAUGUUAUGGGAUGA [JR_Ex6_Sub048] (Eterna round: R97, puzzle: Exclusion 6)
OUT: 273

IN: Also need GAAUGAGAGCAGGAUAUCUUAUAAGUGUAUGAAAGAGAAGGGCUCACAUGAGGAUCACCCAUGUGGUCCUAGAU [jl-ex6-4.86 jandersonlee mod] (Eterna round: R97, puzzle: Exclusion 6) , thanks.
OUT: 329

IN: Also need AGUUAUGCAGGAUAUUGCGGGCCAGACAUGAGGAUCACCCAUGUGUGGGAGUCCUGCGCGCGAGAAGGGCAGACAA [EX5 B.22] (Eterna round: R97, puzzle: Exclusion 5) , thanks.
OUT: 28.9

***
IN: Record request: apparent KD of MS2 coat protein value, item GUUACACAUGAGGAUCACCCAUGUGAGGAUAUGGAUUCGUUAGAAGUAGAAGAUGGAUCCAGAAGGCGCGUGAG [JR_Ex1_Sub079] (Eterna round: R97, puzzle: Exclusion 1)
OUT: 160

IN: Also need UUUAUAUAUGAAGGAUAUACUUAACAUGAGGAUCACCCAUGUGGUGUUGUGAGUGAGUGAGUUUAGUAGAAGGUCAAUUCUUUU [JMF's solution 91] (Eterna round: R96, puzzle: Exclusion NG 2) , thanks.
OUT: 731

====

test system: K4 kissing-loop RNA reporter; test: apparent KD of K4 kissing-loop reporter; higher = weaker reporter binding; details: Eterna round: R107; input ligand: FMN 200 uM;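 also: bound reporter read as fluorescence of individual clusters on recovered sequencing chips by microscopy, with normalized cluster intensities fitted with a binding model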
MEASURED ENDPOINT: apparent KD of K4 kissing-loop reporter

Consider the following illustrative entries.
IN: Record request: apparent KD of K4 kissing-loop reporter value, item AGCAGUCAACUCGAAACCAUCGAAGAUGGUCGAGGACCGGUACGGCCGCCACUCGGAGUGAUGUUCCGAAGACUGCAAAAUAAAA [#SwitchBubble 14]
OUT: 283 nM

IN: Also need AUUUGUUACCUUAUAGGAGUGAUGUUCUUGCGAGGACCGGUACGGCCGCCACUCGCGCUGGCGCCUAGCCUCGGACCGUUAAUUC [theeternabot_exclusion_KL_Trp_A_25] , thanks.
OUT: 582 nM

***
IN: Record request: apparent KD of K4 kissing-loop reporter value, item GCGCGUCAUGUCAGCGGUGACACUGUCGAUACCAGCGCCGUAAGGCGCCCUUGGCAGCGACGUGCUGGAGUGAUGUUCCAGCGUC [#2 Exclusion - Theophylline A Attempt #20 (HarryS)]
OUT: 178 nM

====

test system: MS2 coat protein; test: apparent KD of MS2 coat protein; designed switch direction (-1 OFF switch, 1 ON switch): -1; higher = weaker reporter binding; settings: Eterna round: R95; input ligand: FMN 200 uM
MEASURED ENDPOINT: apparent KD of MS2 coat protein (nM)
The reply should be a number in nM, with the unit left off.

IN: Checklist item: apparent KD of MS2 coat protein tested on MS2 coat protein, entry UUUAAUUUUUUUUUUUUACAAGCUUUUUGCUCGUCUUAUACAUGAGGAUCACCCAUGUGGGUAAAAGGUAAAUUAUC [JMF 63] (puzzle: Sensor v3, turn-off variant 2) , value?
OUT: 15.3

IN: Also need UCGAAGCUAGGAUAUACAUGAGGAUCACCCAUGUGAGUAAUAACUUGGAGAUACCUCCGUAGAAGGAGCACAAA [Beatdienat] (puzzle: Exclusion 3) , thanks.
OUT: 310

IN: Also need AAGAGGUCAGGAUAUACGGAGAGAGGGAGUUGGUUAGGGUAACAUGAGGAUCACCCAUGUAGAAGGGACUAAGA [JR_Exclu2_Sub079] (puzzle: Exclusion 2) , thanks.
OUT: 23.4

IN: Also need UAGUACAUCUAUGGGAGUAACAUGAGGAUCACCCAUGUAUGUCUUGUUUUUUGUUCGUCAUAGGCCUUUUGAUUGGC [JR_SV3TOV1_Sub028] (puzzle: Sensor v3, turn-off variant 1) , thanks.
OUT: 107

IN: Also need UGUACGAUGCGUGCUGACAUGCGUCGUGCAGCAGGUUUUACAUGAGGAUCACCCAUGUCCUCACUUGCUCGUCUUGU (puzzle: Sensor v3, turn-off variant 2) , thanks.
OUT: 257

IN: Also need GAGUAGGUAGGAUAUACGAUAAUAUAGGGUAGAUAUAUAACACAUGAGGAUCACCCAUGUAGAAGGACCAUGAG [Mat - Exclusion 2 - Mod of my Tesla design - D62] (puzzle: Exclusion 2) , thanks.
OUT: 118

IN: Also need AAACCUGCCCAUGACCGCAAGCUUUUUGCUUGUCUUACCACAUGAGGAUCACCCAUGUGGCAUGGGCUCCUUAUAAA [Xemave] (puzzle: Sensor v3, turn-off variant 2) , thanks.
OUT: 14.2

IN: Also need AGUACUAACACGAGUGUGUUAGUACAAUAAGCUUGUGAAACAUGAGGAUCACCCAUGUCCUCAUAAGCUCGUCUUAU [salish99_TOv2_r3_073] (puzzle: Sensor v3, turn-off variant 2) , thanks.
OUT: 17.8

***
IN: Checklist item: apparent KD of MS2 coat protein tested on MS2 coat protein, entry CGAAGUAGAAACCGAUCCUACAUGAGGAUCACCCAUGUAGCAAGACGUGCACGCGAAGCUCGUCAGACUACCAGAAU [salish99_TOv1_r3_015] (puzzle: Sensor v3, turn-off variant 1) , value?
OUT: 212

IN: Also need AAUAAUAAGGAGGAUAUCGUAACCGAAAGGUUACGAGAAGGCCUAACAUGAGGAUCACCCAUGUUCCUCAAUAA [Mat - Exclusion 6 - Eli Mod - D56] (puzzle: Exclusion 6) , thanks.
OUT: 468

IN: Also need CGUGCGUAUGUGAGGAUAUGCUGGUCCUUGGCUCGGCAGAAGGCACAUGAGGAUCACCCAUGUGGUGUCGUACG [salish99_Bmod_ex4_062] (puzzle: Brourd's mod of Exclusion 4) , thanks.
OUT: 53.4

IN: Also need AGUAGGUCUACCUUGGUGGAUCUGCAUUUUUGCAGGUGUACAUGAGGAUCACCCAUGUCCUCAUUUGCUCGUCUUAU [JL turnoff v2 99.30] (puzzle: Sensor v3, turn-off variant 2) , thanks.
OUT: 488

IN: Also need GAUGUGGGUUUUCAGAGUAACAUGAGGAUCACCCAUGUAGAAGUUGAAGGUAUCAAGCGAAUGGCUCGUCAUAUGUG [JR_SV3TOV1_Sub050] (puzzle: Sensor v3, turn-off variant 1) , thanks.
OUT: 161

IN: Also need AGUACUAACACGCUAGUGUUAGUACAAUAAGCUUGUGAAACAUGAGGAUCACCCAUGUCCUCAUAAGCUCGUCUUAU [salish99_TOv2_r3_058] (puzzle: Sensor v3, turn-off variant 2) , thanks.
OUT: 16.4

IN: Also need CUGAGGUAGCGGUCCUAUGACAUGAGGAUCACCCAUGUGCCUCGCUACAAGCUUUUUGCUCGUUUUAUGAUUCUCGG [JL Atriat mod 11] (puzzle: Sensor v3, turn-off variant 1) , thanks.
OUT: 71.2

IN: Also need GCAAGAGCAGGAUAUCUAAUAUAUCACAUGAGGAUCACCCAUGUCCAGCGAAAGCUGGAGGGAGAAGGGCUCUUGC [Mat - Exclusion 5 - Eli mod - D101] (puzzle: Exclusion 5) , thanks.
OUT: 58.9

IN: Also need GUUUGCGCAGGAUAUACAUGAGGAUCACCCAUGUGAGAGAAAUAAGUGAGGAAGAAAAGUAGAAGGGCGUGACG [Mat - Exclusion 3 - Mod of Salish D71] (puzzle: Exclusion 3) , thanks.
OUT: 171

IN: Also need UUUAAUUUUUUUUUUUUACAAGCUUUUUGCUCGUCUUAUACAUGAGGAUCACCCAUGUGAGUGGGAGAUAAAUUAUC [JMF 22] (puzzle: Sensor v3, turn-off variant 2) , thanks.
OUT: 98.2

IN: Also need AAUAAGUGAGGAUAUACUAAAAUAUGAAUAAAAUAAAUAAAACAUGAGGAUCACCCAUGUAGAAGGCACAAUAA [JMF's Not so obvious solution 5] (puzzle: Exclusion 2) , thanks.
OUT: 22.6

IN: Also need AAUAGGACAGGAUAUCCGGAGUCGAACAUGAGGAUCACCCAUGUGAUGAGGAUGUUCGCUGGAGAAGGGUCUGGCU [Atisdiis] (puzzle: Exclusion 5) , thanks.
OUT: 83.9
